- system tested: BRD4-1 (Homo sapiens, UniProt O60885)
- Construct: made in house; host or cells: Escherichia coli
- assay name: Biochemical ALPHA assay: binding of BRD4_1 to acetylated histone H4 peptide
- experimental setup: 200 nM H4 peptide, 15 nM BRD4_1, 60 min at 25 °C; geometric mean of min. four determinations
- Procedure: Binding of the bromodomain BRD4_I to an acetylated histone H4 peptide was measured using a bead based Amplified Luminescent Proximity Homogeneous Assay (ALPHA). […] After an assay reaction time of 60 minutes at 25° C., binding was measured with 20 µg/ml streptavidin donor beads and 20 μg/ml nickel-chelate acceptor beads. ALPHA signal was detected on an Envision plate reader ([…]; Em: 570 nm; Ex time: 180 ms). […]
measured endpoint: pIC50
For clarity, pIC50 is expressed as the negative log10 of concentration in mol/L.

Worked examples follow.
[
  {
    "compound": "Cc1ccc2ncccc2c1-c1cc(-c2c(C)noc2C)cc2[nH]c(=O)[nH]c12 (single isomer, unassigned) [Example 13]",
    "number": 7.34
  },
  {
    "compound": "Cc1cnn(C)c1-c1cc(-c2c(C)noc2C)cc2[nH]c(=O)n(C)c12",
    "number": 6.62
  }
]

Record Cc1noc(C)c1-c1cc(-c2cccc3c2CCC(=O)N3C)c2[nH]c(=O)[nH]c2c1 , field pIC50: 7.33

Record Cc1noc(C)c1-c1cc(-c2c(C)noc2C)c2[nH]c(=O)[nH]c2c1 , field pIC50: 6.92

Record Cc1noc(C)c1-c1cc(-c2c(C)noc2C)c2oc(=O)[nH]c2c1 , field pIC50: 6.71

Record Cc1noc(C)c1-c1cc(-c2cccnc2-c2ccccc2)c2[nH]c(=O)[nH]c2c1 , field pIC50: 7.43

Record Cc1noc(C)c1-c1cc(-c2c(C)noc2C)c2c(c1)[nH]c(=O)n2C , field pIC50: 6.57

Record Cc1noc(C)c1-c1cc(-c2cccnc2-c2ccccc2)c2oc(=O)[nH]c2c1 , field pIC50: 6.63

---

- system tested: BRD4-1 (Homo sapiens, UniProt O60885)
- Construct: made in house; host or cells: Escherichia coli
- assay name: Biochemical HTRF (TR-FRET) assay: BRD4-1 binding to acetylated histone H4 peptide
- experimental setup: 200 nM H4 peptide, 60 nM BRD4-1, 60 min at 25 °C; geometric mean; read-out: IC50 HTBS BRD4-1 HTRF
Parameter pIC50: see the listing below.
For clarity, pIC50 is expressed as the negative log10 of concentration in mol/L.

Worked examples follow.
[
  {
    "molecule": "Cc1ccc2ncccc2c1-c1cc(-c2c(C)noc2C)cc2[nH]c(=O)oc12 [Example 11]",
    "system tested": "BRD4-1 (Homo sapiens, UniProt O60885)",
    "pIC50": 6.36
  },
  {
    "molecule": "Cc1noc(C)c1-c1cc(-c2c(C)noc2C)c2oc(=O)[nH]c2c1 [Example 10]",
    "system tested": "BRD4-1 (Homo sapiens, UniProt O60885)",
    "pIC50": 6.50
  },
  {
    "molecule": "Cc1noc(C)c1-c1cc(-c2c(C)noc2C)c2[nH]c(=O)[nH]c2c1 [Example 3]",
    "system tested": "BRD4-1 (Homo sapiens, UniProt O60885)",
    "pIC50": 6.53
  },
  {
    "molecule": "Cc1noc(C)c1-c1cc(-c2c(C)noc2C)c2c(c1)[nH]c(=O)n2C [Example 9]",
    "system tested": "BRD4-1 (Homo sapiens, UniProt O60885)",
    "pIC50": 6.30
  },
  {
    "molecule": "Cc1ccc2ncccc2c1-c1cc(-c2c(C)noc2C)cc2[nH]c(=O)[nH]c12 (racemic) [Example 2]",
    "system tested": "BRD4-1 (Homo sapiens, UniProt O60885)",
    "pIC50": 6.87
  },
  {
    "molecule": "Cc1noc(C)c1-c1cc(-c2cccc3c2CCC(=O)N3C)c2[nH]c(=O)[nH]c2c1 [Example 6]",
    "system tested": "BRD4-1 (Homo sapiens, UniProt O60885)",
    "pIC50": 6.88
  },
  {
    "molecule": "Cc1cnn(C)c1-c1cc(-c2c(C)noc2C)cc2[nH]c(=O)[nH]c12 [Example 5]",
    "system tested": "BRD4-1 (Homo sapiens, UniProt O60885)",
    "pIC50": 6.46
  }
]

Attention now shifts to the item below.
Lab entry: BRD4-1 (Homo sapiens, UniProt O60885) assay, molecule Cc1ccc2ncccc2c1-c1cc(-c2c(C)noc2C)cc2[nH]c(=O)n(C)c12 [Example 7] , pIC50 = 6.92

Measured values drawn from patent US20160031868A1 for this set.
